Taken from patent US20230272056A1.

biological target: human LAP-TGFβ1 expressed on P3U1 cells (human, UniProt P01137 30-390); assay: cell-based or functional assay
Sequence (P01137 30-390): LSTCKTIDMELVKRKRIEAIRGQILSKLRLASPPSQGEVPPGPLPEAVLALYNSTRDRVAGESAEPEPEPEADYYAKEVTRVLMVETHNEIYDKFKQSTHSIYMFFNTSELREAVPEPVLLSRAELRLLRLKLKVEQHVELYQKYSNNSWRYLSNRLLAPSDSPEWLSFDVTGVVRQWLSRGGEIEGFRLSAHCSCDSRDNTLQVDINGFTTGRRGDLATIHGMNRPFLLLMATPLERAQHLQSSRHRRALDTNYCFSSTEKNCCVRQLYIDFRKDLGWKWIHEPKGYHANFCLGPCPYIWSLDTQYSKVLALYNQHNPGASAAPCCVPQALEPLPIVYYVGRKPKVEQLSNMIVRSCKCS
The following binders are listed with their measured ELISA assay #1 EC50 values.
Enter your answer as a number in µg/mL; do not include the unit.

binder	measuredParameter	unitAbbrev	valueMeasured
19BLM (antibody, human IgG1, kappa, L234A L235A, V domains shown, IgG1 L234A L235A D265S/kappa; also called 82BLH; 55BMD) VH: EVQLVQSGAEVKKPGASVKVSCKASGYTFTSYDMHWVRQAPGQGLEWMGRIDPQSGGIKYAQKFQGRATLTVDTSTSTAYMELSRLRSDDTAVYYCARYDHGGYFDVWGQGTLVTVSS VL: DIQMTQSPSSLSASVGDRVTITCRASQDIYNYLNWYQQKPGKAVKLLIYYTSYLETGVPSRFSGSGSGTDYTLTISSLQPEDFATYFCQQGDTLPWTFGQGTKLEIKR	ELISA assay #1 EC50	µg/mL	0.152
parental 20E6 humanized antibody (antibody, IgG1, V domains shown) VH: EVQLVQSGAEVKKPGASVKVSCKASGYTFTSYWMHWVRQAPGQGLEWMGRIDPQSGGIKYAQKFQGRATLTVDTSTSTAYMELSRLRSDDTAVYYCARWDYGGYFDVWGQGTLVTVSS VL: DIQMTQSPSSLSASVGDRVTITCRASQDITNYLNWYQQKPGKAVKLLIYYTSRLHSGVPSRFSGSGSGTDYTLTISSLQPEDFATYFCQQGDTLPWTFGQGTKLEIK	ELISA assay #1 EC50	µg/mL	2.38

Field ELISA assay #1 EC50 (entry 12BLM (antibody, human IgG1, kappa, L234A L235A, V domains shown, IgG1 L234A L235A D265S/kappa; also called 75BLH; 48BMD) VH: EVQLVQSGAEVKKPGASVKVSCKASGYTFTSYDMHWVRQAPGQGLEWMGRIDPQSGGVKYAQKFQGRATLTVDTSTSTAYMELSRLRSDDTAVYYCARWDYGGYFDVWGQGTLVTVSS VL: DIQMTQSPSSLSASVGDRVTITCRASQDIYNYLNWYQQKPGKAVKLLIYYTSVLETGVPSRFSGSGSGTDYTLTISSLQPEDFATYFCQQGDELPWTFGQGTKLEIKR ) reads 0.0295
